- System: Jurkat
- assayOverview: cytotoxicity relative to DMSO, 18 h (ratio); higher = less cell death (drugs called cytotoxic fall below 1)
- particulars: 1 nM
Each item that follows carries a reported cytotoxicity.
quantityName: cytotoxicity

molecule	targetDesc	quantityName	obsValue
COc1ccc(-c2nc(N3CCOCC3)c3sc(CN(C)c4ncc(C(=O)NO)cn4)cc3n2)cn1 [Fimepinostat]	Jurkat	cytotoxicity	0.792
CC(=O)Nc1ccc(C(=O)Nc2ccccc2N)cc1 [Tacedinaline]	Jurkat	cytotoxicity	0.902
Cc1[nH]c2ccccc2c1CCNCc1ccc(C=CC(=O)NO)cc1 [Panobinostat]	Jurkat	cytotoxicity	0.94
O=C(O)C1(C(=O)O)CCC1.[NH2-].[NH2-].[Pt+2] [Carboplatin]	Jurkat	cytotoxicity	0.95
CC(=O)OC1C(=O)C2(C)C(O)CC3OCC3(OC(C)=O)C2C(OC(=O)c2ccccc2)C2(O)CC(OC(=O)C(O)C(NC(=O)c3ccccc3)c3ccccc3)C(C)=C1C2(C)C (stereo not given) [Paclitaxel]	Jurkat	cytotoxicity	1.16
CCNC(=O)CC1N=C(c2ccc(Cl)cc2)c2cc(OC)ccc2-n2c(C)nnc21 (stereo not given) [Molibresib]	Jurkat	cytotoxicity	0.992
COC1CC2CCC(C)C(O)(O2)C(=O)C(=O)N2CCCCC2C(=O)OC(C(C)CC2CCC(OC(=O)C(C)(CO)CO)C(OC)C2)CC(=O)C(C)C=C(C)C(O)C(OC)C(=O)C(C)CC(C)C=CC=CC=C1C (stereo not given) [Temsirolimus]	Jurkat	cytotoxicity	0.937
COc1ccc(C2=NC(c3ccc(Cl)cc3)C(c3ccc(Cl)cc3)N2C(=O)N2CCNC(=O)C2)c(OC(C)C)c1 (stereo not given) [Nutlin-3]	Jurkat	cytotoxicity	0.993
Cc1nc(Nc2ncc(C(=O)Nc3c(C)cccc3Cl)s2)cc(N2CCN(CCO)CC2)n1 [Dasatinib]	Jurkat	cytotoxicity	0.993
CC(C)CC(NC(=O)C(CCc1ccccc1)NC(=O)CN1CCOCC1)C(=O)NC(Cc1ccccc1)C(=O)NC(CC(C)C)C(=O)C1(C)CO1 (stereo not given) [Carfilzomib]	Jurkat	cytotoxicity	1.02
CN(C)CC(=O)Nc1ccc2[nH]c(=O)c3ccccc3c2c1 [PJ34]	Jurkat	cytotoxicity	0.966
CC(C)CC(C=O)NC(=O)C(CC(C)C)NC(=O)C(CC(C)C)NC(=O)OCc1ccccc1 (stereo not given) [MG-132]	Jurkat	cytotoxicity	0.953
Cc1csc(-c2nnc(Nc3ccc(Oc4ncccc4-c4ccnc(N)n4)cc3)c3ccccc23)c1 [AMG-900]	Jurkat	cytotoxicity	0.919
CCN(CC)Cc1ccc2cc(COC(=O)Nc3ccc(C(=O)NO)cc3)ccc2c1 [Givinostat]	Jurkat	cytotoxicity	1.15
CCOC(=O)Nc1cc(-c2ccc(C)c(NS(C)(=O)=O)c2)nn2c(C)nnc12 [Bromosporine]	Jurkat	cytotoxicity	0.92

----------
- Tested on: Jurkat
- assayOverview: cytotoxicity relative to DMSO, 18 h (ratio); higher = less cell death (drugs called cytotoxic fall below 1)
- particulars: 10000 nM
Each item that follows carries a reported cytotoxicity.
quantityName: cytotoxicity

In [3]: df
Out[3]:
                                   molecule  targetdesc  quantityname  obsvalue
0  CCNC(=O)CC1N=C(c2ccc(Cl)cc2)c2cc(OC)ccc2-n2c(C)nnc21 (centres undefined) [Molibresib]      Jurkat  cytotoxicity     0.848
1  O=C(Nc1cccc(Cl)c1)Nc1ncc(CCNc2ncnc3ccsc23)s1 [SNS-314]      Jurkat  cytotoxicity     0.733
2  CCCCN(Cc1ccc(C(=O)NO)cc1)C(=O)Nc1ccccc1 [Nexturastat A]      Jurkat  cytotoxicity      0.92
3  CC(C)CC(C=O)NC(=O)C(CC(C)C)NC(=O)C(CC(C)C)NC(=O)OCc1ccccc1 (centres undefined) [MG-132]      Jurkat  cytotoxicity     0.461
